- condition.notes: in toluene, 298.15 K
quantity.name: solubility (mole fraction)

query: Reported solubility (mole fraction), compound `C/C(=C/C(C)=N/c1c(C(C)C)cccc1C(C)C)Nc1c(C(C)C)cccc1C(C)C` : ____
result: 0.108

----------
- condition.notes: in ethanol, 293.15 K
quantity.name: solubility (mole fraction)
I'd appreciate a reply containing only the number, no unit.

query: Reported solubility (mole fraction), molecule `C/C(=C/C(C)=N/c1c(C(C)C)cccc1C(C)C)Nc1c(C(C)C)cccc1C(C)C` : ____
result: 0.0019

----------
- condition.notes: in methanol, 293.15 K
quantity.name: solubility (mole fraction)
I'd appreciate a reply containing only the number, no unit.

query: Reported solubility (mole fraction), compound `C/C(=C/C(C)=N/c1c(C(C)C)cccc1C(C)C)Nc1c(C(C)C)cccc1C(C)C` : ____
result: 0.0002

----------
- condition.notes: in THF, 293.15 K
quantity.name: solubility (mole fraction)
I'd appreciate a reply containing only the number, no unit.

query: Reported solubility (mole fraction), molecule `C/C(=C/C(C)=N/c1c(C(C)C)cccc1C(C)C)Nc1c(C(C)C)cccc1C(C)C` : ____
result: 0.15

----------
- condition.notes: in toluene, 278.15 K
quantity.name: solubility (mole fraction)

query: Reported solubility (mole fraction), molecule `C/C(=C/C(C)=N/c1c(C(C)C)cccc1C(C)C)Nc1c(C(C)C)cccc1C(C)C` : ____
result: 0.0673

----------
- condition.notes: in methanol, 303.15 K
quantity.name: solubility (mole fraction)
I'd appreciate a reply containing only the number, no unit.

query: Reported solubility (mole fraction), compound `C/C(=C/C(C)=N/c1c(C(C)C)cccc1C(C)C)Nc1c(C(C)C)cccc1C(C)C` : ____
result: 0.0004

----------
- condition.notes: in ethanol, 288.15 K
quantity.name: solubility (mole fraction)
I'd appreciate a reply containing only the number, no unit.

query: Reported solubility (mole fraction), compound `C/C(=C/C(C)=N/c1c(C(C)C)cccc1C(C)C)Nc1c(C(C)C)cccc1C(C)C` : ____
result: 0.0015

----------
- condition.notes: in methanol, 308.15 K
quantity.name: solubility (mole fraction)
I'd appreciate a reply containing only the number, no unit.

query: Reported solubility (mole fraction), compound `C/C(=C/C(C)=N/c1c(C(C)C)cccc1C(C)C)Nc1c(C(C)C)cccc1C(C)C` : ____
result: 0.0005

----------
- condition.notes: in n-hexane, 303.15 K
quantity.name: solubility (mole fraction)
I'd appreciate a reply containing only the number, no unit.

query: Reported solubility (mole fraction), molecule `C/C(=C/C(C)=N/c1c(C(C)C)cccc1C(C)C)Nc1c(C(C)C)cccc1C(C)C` : ____
result: 0.078

----------
- condition.notes: in n-hexane, 283.15 K
quantity.name: solubility (mole fraction)
I'd appreciate a reply containing only the number, no unit.

query: Reported solubility (mole fraction), compound `C/C(=C/C(C)=N/c1c(C(C)C)cccc1C(C)C)Nc1c(C(C)C)cccc1C(C)C` : ____
result: 0.048

----------
- condition.notes: in n-hexane, 313.15 K
quantity.name: solubility (mole fraction)

query: Reported solubility (mole fraction), compound `C/C(=C/C(C)=N/c1c(C(C)C)cccc1C(C)C)Nc1c(C(C)C)cccc1C(C)C` : ____
result: 0.103

----------
- condition.notes: in n-hexane, 298.15 K
quantity.name: solubility (mole fraction)
I'd appreciate a reply containing only the number, no unit.

query: Reported solubility (mole fraction), molecule `C/C(=C/C(C)=N/c1c(C(C)C)cccc1C(C)C)Nc1c(C(C)C)cccc1C(C)C` : ____
result: 0.0699
